- SYSTEM UNDER TEST: PDE 5 (cGMP specific PDE) (Homo sapiens)
- Construct: from tissue; host or cells: human platelets, DEAE-cellulose fraction
- PROTOCOL DESCRIPTION: Phosphodiesterase inhibiting effect, PDE 5 separated from human platelets
- Type: biochemical
- EXPERIMENTAL CONDITIONS: isozyme from human platelets; [3H]-cAMP or [3H]-cGMP substrate; read-out: PDE inhibiting activity : IC50(nM) PDE5
- Method: Cyclic nucleotide phosphodiesterases from human platelets and from the heart and kidney of a dog were eluted by the concentration gradient method with 70 to 1000 mM of sodium acetate on DEAE-cellulose column chromatography (Whatman Co. Ltd., DE-52, φ 3.2 x 13 cm) according to the method of Thompson and others (Thompson W. J., et al., Advances in Cyclic Nucleotide Research: 10, 69-92, 1979), and separated into isozymes. […]
Response field label: string, one of True (IC50 strictly below 0.5 nM) or False.

# SMILES STR, GROUP
records = [
    ("COc1ccc(CNc2nc(C(=O)Nc3ccccc3)nc3sc(-c4ccncc4)c(C)c23)cc1Cl", "True"),
    ("COc1ccc(CNc2nc(-c3cccnc3)nc3sc(C(=O)NCCO)c(C)c23)cc1Cl", "False"),
    ("COc1ccc(CNc2nc(-c3ccncc3)nc3sc(C(=O)Nc4nccs4)c(C)c23)cc1Cl", "True"),
    ("COc1ccc(CNc2nc(-c3cccnc3)nc3sc(C#N)c(C)c23)cc1Cl", "False"),
    ("COc1ccc(CNc2nc(-c3cccnc3)nc3sc(C(=O)N4CCOCC4)c(C)c23)cc1Cl", "False"),
    ("COc1ccc(CNc2nc(-c3cccnc3)nc3sc(C(=O)Nc4nccs4)c(C)c23)cc1Cl", "True"),
    ("COc1ccc(CNc2nc(-c3cccnc3)nc3sc(C(=O)Nc4cccnc4)c(C)c23)cc1Cl", "False"),
]
